# maps each entry to its ELISA signal
Target: T1, human CD137-Fc (human, biotin-labeled)
T1 construct: if 90 already holds the Fc, drop the second piece; also called biotin-labeled human CD137 fused to human IgG1 Fc fragment; biotin-human CD137-Fc; not shown: human IgG1 Fc fragment
Assay: bead ELISA on biotin-human CD137-Fc with 62.5 pmol free CD3e peptide as competitor
No unit in the answer, only the number.

Use these answered entries as a reference point.
DADU01_3#018 (antibody, V domains shown, Human IgG1; light chain GLS3000 (kappa); also called dBBDu123) VH: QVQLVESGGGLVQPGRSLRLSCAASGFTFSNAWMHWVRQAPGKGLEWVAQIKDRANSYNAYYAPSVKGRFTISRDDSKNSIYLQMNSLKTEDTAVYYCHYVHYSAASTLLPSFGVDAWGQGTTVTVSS VL: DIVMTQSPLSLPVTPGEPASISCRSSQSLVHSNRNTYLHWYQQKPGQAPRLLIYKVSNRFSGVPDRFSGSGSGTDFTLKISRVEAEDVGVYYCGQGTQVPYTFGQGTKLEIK
9020
anti-human CD137 antibody described in WO2005/035584A1 (abbreviated as B) (antibody, V domains shown, Control antibody; also called control anti-CD137 antibody) VH: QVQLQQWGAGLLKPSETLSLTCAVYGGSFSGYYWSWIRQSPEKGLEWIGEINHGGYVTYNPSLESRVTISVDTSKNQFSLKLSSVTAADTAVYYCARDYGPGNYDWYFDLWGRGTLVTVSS VL: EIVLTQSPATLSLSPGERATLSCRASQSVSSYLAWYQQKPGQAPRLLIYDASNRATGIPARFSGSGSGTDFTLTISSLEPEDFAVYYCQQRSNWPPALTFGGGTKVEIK
183000

stdin: Supply recorded ELISA signal for DADU01_3#002 (antibody, V domains shown, Human IgG1; light chain GLS3000 (kappa); also called dBBDu124) VH: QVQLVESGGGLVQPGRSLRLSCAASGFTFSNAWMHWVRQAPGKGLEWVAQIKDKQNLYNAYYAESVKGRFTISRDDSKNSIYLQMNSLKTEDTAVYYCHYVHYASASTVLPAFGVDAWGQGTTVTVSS VL: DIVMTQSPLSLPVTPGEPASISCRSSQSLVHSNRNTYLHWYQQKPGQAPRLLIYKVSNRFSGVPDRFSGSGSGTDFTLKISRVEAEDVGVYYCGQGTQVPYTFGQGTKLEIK here.
stdout: 9970

stdin: Identify measured ELISA signal associated with DXDU01_3#019 (antibody, V domains shown, Human IgG1; light chain GLS3000 (kappa); also called dBBDu125) VH: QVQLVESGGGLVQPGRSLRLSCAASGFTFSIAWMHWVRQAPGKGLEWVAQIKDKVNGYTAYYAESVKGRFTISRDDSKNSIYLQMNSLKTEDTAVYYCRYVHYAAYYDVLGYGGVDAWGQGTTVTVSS VL: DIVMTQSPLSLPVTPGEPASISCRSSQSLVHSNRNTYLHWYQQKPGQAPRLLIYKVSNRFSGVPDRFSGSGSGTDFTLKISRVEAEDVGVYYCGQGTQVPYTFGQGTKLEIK
stdout: 12800

stdin: Given DXDU01_3#094 (antibody, V domains shown, Human IgG1; light chain GLS3000 (kappa); also called dBBDu121) VH: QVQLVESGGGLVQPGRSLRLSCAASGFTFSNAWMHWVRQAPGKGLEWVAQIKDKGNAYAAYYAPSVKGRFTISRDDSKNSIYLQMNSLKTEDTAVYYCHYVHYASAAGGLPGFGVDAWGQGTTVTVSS VL: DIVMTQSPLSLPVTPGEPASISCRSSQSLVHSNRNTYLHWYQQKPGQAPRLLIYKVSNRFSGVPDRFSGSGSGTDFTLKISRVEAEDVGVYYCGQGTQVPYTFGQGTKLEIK , respond with its ELISA signal.
stdout: 9660

stdin: Entry DADU01_3#001 (antibody, V domains shown, Human IgG1; light chain GLS3000 (kappa); also called dBBDu126; dBBDu_126) VH: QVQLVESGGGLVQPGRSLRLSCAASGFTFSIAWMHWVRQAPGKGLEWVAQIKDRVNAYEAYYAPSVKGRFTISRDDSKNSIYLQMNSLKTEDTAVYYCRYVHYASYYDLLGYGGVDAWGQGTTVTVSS VL: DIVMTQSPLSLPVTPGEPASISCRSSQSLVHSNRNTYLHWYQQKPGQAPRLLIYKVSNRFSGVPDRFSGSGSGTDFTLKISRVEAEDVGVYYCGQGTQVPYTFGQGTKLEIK needs its ELISA signal filled in; supply it.
stdout: 15100
